Values from the supplement of paper PMC6897291

Test system: U-2932
Assay Comment: growth inhibition by drug alone (1 - RLU/untreated control) (fraction); higher = stronger inhibition
Assay Conditions: 10 nM; time (day): 3; 177Lu-lilotomab satetraxetan 0 ug/ml
I'd appreciate it if you could supply growth inhibition by drug alone values for the items below.
Please reply with the value in numeric form only.

Q: Please give the documented growth inhibition by drug alone of CC1=C(/C=C/C(C)=C/C=C/C(C)=C/C(=O)Nc2ccc(O)cc2)C(C)(C)CCC1 [Fenretinide]
Ans: 0.0635

Q: Please give the documented growth inhibition by drug alone of COc1cc2ncnc(Nc3ccc(Oc4ccccc4)cc3)c2cc1OC
Ans: 0.0897

Q: Please give the documented growth inhibition by drug alone of COc1cc(Nc2ncc3c(n2)-c2ccc(Cl)cc2C(c2c(F)cccc2OC)=NC3)ccc1C(=O)O [MLN8237 (Alisertib)]
Ans: 0.00882

Q: Please give the documented growth inhibition by drug alone of CN(C)CCCCSC(=N)N
Ans: 0.0803

Q: Please give the documented growth inhibition by drug alone of COc1nc(C)cnc1NS(=O)(=O)c1cccnc1-c1ccc(-c2nnco2)cc1 [Zibotentan (ZD4054)]
Ans: -0.02

---

Test system: RIVA
Assay Comment: growth inhibition by drug alone (1 - RLU/untreated control) (fraction); higher = stronger inhibition
Assay Conditions: 10 nM; time (day): 5; 177Lu-lilotomab satetraxetan 0 ug/ml
Where a name gives a salt, the structure may show the parent alone.
Categorized via growth inhibition by drug alone: lowest = under -0.2, middle = from -0.2 up to -0.05, highest = -0.05 and over

Q: GET /class?item= CC(C)(C)c1cnc(CSc2cnc(NC(=O)C3CCNCC3)s2)o1
Ans: lowest

Q: GET /class?item= COc1cc2nc(N3CCCN(C)CC3)nc(NC3CCN(Cc4ccccc4)CC3)c2cc1OC
Ans: highest

Q: GET /class?item= COC(=O)Nc1nc2cc(C(=O)c3cccs3)ccc2[nH]1
Ans: middle

Q: GET /class?item= O=C(/C=C/c1cccc(S(=O)(=O)Nc2ccccc2)c1)NO
Ans: highest

Q: GET /class?item= COc1ccc2c(c1)CCC1C2CCC2(C)C(NCCCCCCN3C(=O)C=CC3=O)CCC12 (centres undefined)
Ans: middle

Q: GET /class?item= O=C(NCCCNc1nc(Nc2cccc(NC(=O)N3CCCC3)c2)ncc1I)c1cccs1
Ans: highest

Q: GET /class?item= Cc1ccc(C(=O)N(CCCN)[C@@H](c2nc3cc(Cl)ccc3c(=O)n2Cc2ccccc2)C(C)C)cc1
Ans: highest

Q: GET /class?item= C[N+](C)([O-])CCNc1ccc(NCC[N+](C)(C)[O-])c2c1C(=O)c1c(O)ccc(O)c1C2=O [Banoxantrone dihydrochloride]
Ans: lowest

Q: GET /class?item= Cn1cc(C2=C(c3ccc(Cl)cc3Cl)C(=O)NC2=O)c2ccccc21
Ans: middle

Q: GET /class?item= CCC(CC)CC1(C(=O)Nc2ccccc2SC(=O)C(C)C)CCCCC1
Ans: middle

Q: GET /class?item= CCn1c(-c2nonc2N)nc2c(C#CC(C)(C)O)ncc(OC[C@H]3CCCNC3)c21
Ans: middle

Q: GET /class?item= O=c1[nH]nc(Sc2ncc([N+](=O)[O-])s2)n1-c1ccc2c(c1)OCCO2
Ans: middle

Q: GET /class?item= O=C(O)c1ccc2c(c1)nc(Nc1cccc(Cl)c1)c1ccncc12 [cx-4945 (Silmitasertib)]
Ans: middle

Q: GET /class?item= CO[C@H]1C[C@@H]2CC[C@@H](C)[C@@](O)(O2)C(=O)C(=O)N2CCCC[C@H]2C(=O)O[C@H]([C@H](C)C[C@@H]2CC[C@@H](OC(=O)C(C)(CO)CO)[C@H](OC)C2)CC(=O)[C@H](C)/C=C(\C)[C@@H](O)[C@@H](OC)C(=O)[C@H](C)C[C@H](C)/C=C/C=C/C=C/1C
Ans: highest

Q: GET /class?item= Cc1cc(O)c2c(c1)C(=O)c1cccc(O)c1C2=O
Ans: lowest

Q: GET /class?item= CS(=O)(=O)c1cccc(CNc2nc(Nc3ccc4c(c3)CCC(=O)N4)ncc2C(F)(F)F)c1
Ans: middle

Q: GET /class?item= Cn1cncc1[C@@](N)(c1ccc(Cl)cc1)c1ccc2c(c1)c(-c1cccc(Cl)c1)cc(=O)n2C [Tipifarnib (Zarnestra)]
Ans: lowest

Q: GET /class?item= COC1=CC(c2cc3ccccc3[nH]2)=N/C1=C\c1[nH]c(C)cc1C [Obatoclax mesylate (GX15-070)]
Ans: middle

Q: GET /class?item= CCOc1ccn(-c2ccc(F)cc2)c(=O)c1C(=O)Nc1ccc(Oc2ccnc(N)c2Cl)c(F)c1
Ans: highest

Q: GET /class?item= N#Cc1ccc(COC[C@H]2O[C@@H](n3c(NCc4ccc(Cl)c(Cl)c4)nc4c(N)ncnc43)[C@H](O)[C@@H]2O)cc1
Ans: lowest

Q: GET /class?item= Nc1[nH]nc2nnc(-c3c(-c4ccccc4)nn4ccccc34)cc12
Ans: highest

Q: GET /class?item= CCc1cncnc1N1CCN(Cc2nc3ccc(C(F)(F)F)cc3[nH]2)CC1
Ans: middle

Q: GET /class?item= CC(C)n1nc(-c2ccc3oc(N)nc3c2)c2c(N)ncnc21
Ans: highest

Q: GET /class?item= CCC(C)(C)C(=O)O[C@H]1C[C@@H](C)C=C2C=C[C@H](C)[C@H](CC[C@@H]3C[C@@H](O)CC(=O)O3)[C@H]21 [Simvastatin (Zocor)]
Ans: lowest

Q: GET /class?item= O=C(Nc1ccc(OC(F)(F)F)cc1)c1sccc1NCc1ccnc2ccccc12
Ans: middle

Q: GET /class?item= Cc1c(CCOc2ccc(C(=O)O)cc2)c2cc(Cl)ccc2n1C(c1ccccc1)c1ccccc1
Ans: lowest

Q: GET /class?item= Cc1ccc(-c2csc3ncnc(SCCC(=O)O)c23)cc1
Ans: lowest

Q: GET /class?item= O=c1cc(-c2cccc3c2Sc2ccccc2S3)oc(N2CCOCC2)c1
Ans: lowest

Q: GET /class?item= Nc1ccccc1NC(=O)c1ccc(CNC(=O)OCc2cccnc2)cc1
Ans: highest

Q: GET /class?item= Nc1ccc(C(=O)Nc2cccc(-c3nc(N4CCOCC4)c4oc5ncccc5c4n3)c2)cn1
Ans: middle

Q: GET /class?item= CCOc1ccc(Cc2cc([C@@H]3O[C@H](CO)[C@@H](O)[C@H](O)[C@H]3O)ccc2Cl)cc1
Ans: middle

Q: GET /class?item= OCCn1cc(-c2ccc3c(c2)CC/C3=N\O)c(-c2ccncc2)n1
Ans: middle

Q: GET /class?item= Cc1nc(Nc2ncc(C(=O)Nc3c(C)cccc3Cl)s2)cc(N2CCN(CCO)CC2)n1
Ans: highest

---

Test system: RIVA
Assay Comment: growth inhibition by drug plus 177Lu-lilotomab satetraxetan (1 - RLU/untreated control) (fraction); higher = stronger inhibition
Assay Conditions: 10 nM; time (day): 6; 177Lu-lilotomab satetraxetan 0.5 ug/ml
Structures can show the parent of a compound that is named as a salt.
I'd appreciate it if you could supply growth inhibition by drug plus 177Lu-lilotomab satetraxetan values for the items below.
Please reply with the value in numeric form only.

Q: Name the recorded growth inhibition by drug plus 177Lu-lilotomab satetraxetan of C[C@@H](O[C@H]1OCCN(Cc2n[nH]c(=O)[nH]2)[C@H]1c1ccc(F)cc1)c1cc(C(F)(F)F)cc(C(F)(F)F)c1 [Aprepitant (MK-0869)] , assay system RIVA.
Ans: 0.488

Q: Name the recorded growth inhibition by drug plus 177Lu-lilotomab satetraxetan of Cc1c(CCOc2ccc(C(=O)O)cc2)c2cc(Cl)ccc2n1C(c1ccccc1)c1ccccc1 , assay system RIVA.
Ans: 0.582

Q: Name the recorded growth inhibition by drug plus 177Lu-lilotomab satetraxetan of Cc1cnc(Nc2ccc(OCCN3CCCC3)cc2)nc1Nc1cccc(S(=O)(=O)NC(C)(C)C)c1 , assay system RIVA.
Ans: 0.492

Q: Name the recorded growth inhibition by drug plus 177Lu-lilotomab satetraxetan of COC1=CC(c2cc3ccccc3[nH]2)=N/C1=C\c1[nH]c(C)cc1C [Obatoclax mesylate (GX15-070)] , assay system RIVA.
Ans: 0.618

---

Test system: U-2932
Assay Comment: growth inhibition by drug alone (1 - RLU/untreated control) (fraction); higher = stronger inhibition
Assay Conditions: 1000 nM; time (day): 6; 177Lu-lilotomab satetraxetan 0 ug/ml
Tick met if growth inhibition by drug alone is 0.3 or greater. Tick not met if growth inhibition by drug alone is less than 0.3.

Q: Does growth inhibition by drug alone meet or surpass 0.3 for COc1ccccc1OCC(O)CN1CCN(CC(=O)Nc2c(C)cccc2C)CC1 (centres undefined) [Ranolazine (Ranexa)] ?
Ans: not met

Q: Does growth inhibition by drug alone meet or surpass 0.3 for Cc1cc(O)c2c(c1)C(=O)c1cccc(O)c1C2=O ?
Ans: not met

Q: Does growth inhibition by drug alone meet or surpass 0.3 for O=C(/C=C/c1cccnc1)NCCCCC1CCN(C(=O)c2ccccc2)CC1 ?
Ans: met

Q: Does growth inhibition by drug alone meet or surpass 0.3 for COC(=O)Nc1nc2cc(C(=O)c3cccs3)ccc2[nH]1 ?
Ans: met

Q: Does growth inhibition by drug alone meet or surpass 0.3 for Nc1cccc2c1C(=O)N(C1CCC(=O)NC1=O)C2=O (centres undefined) [Pomalidomide] ?
Ans: met

Q: Does growth inhibition by drug alone meet or surpass 0.3 for CCNC(=O)c1noc(-c2cc(C(C)C)c(O)cc2O)c1-c1ccc(CN2CCOCC2)cc1 ?
Ans: met

Q: Does growth inhibition by drug alone meet or surpass 0.3 for CCC(CC)CC1(C(=O)Nc2ccccc2SC(=O)C(C)C)CCCCC1 ?
Ans: not met

Q: Does growth inhibition by drug alone meet or surpass 0.3 for COc1cc2c(NC3CCN(C)CC3)nc(N3CCCN(C)CC3)nc2cc1OCCCN(C)C ?
Ans: not met

Q: Does growth inhibition by drug alone meet or surpass 0.3 for COc1cc(Nc2ncc3c(n2)-c2ccc(Cl)cc2C(c2c(F)cccc2OC)=NC3)ccc1C(=O)O ?
Ans: not met
